Conditions: Crystal; DTA
READOUT: Normal melting temperature (°C)

Examples from the recorded data:
CCCCCCCCCCCCCCCCCC(=O)O [octadecanoic acid] ... 70.23
CCCCCCCCCCCCCCCC(=O)O [hexadecanoic acid] ... 63.32

1 = CCCCCCCC(=O)OCC(COC(=O)CCCCCCC)OC(=O)CCCCCCC [1,2,3-propanetriol trioctanoate]
2 = CCCCCCCCCCCCCC(=O)O [tetradecanoic acid]
3 = CC/C=C\C/C=C\C/C=C\CCCCCCCC(=O)OCC(COC(=O)CCCCCCC/C=C\C/C=C\C/C=C\CC)OC(=O)CCCCCCC/C=C\C/C=C\C/C=C\CC [trilinolenin]
4 = CCCCCCCC/C=C\CCCCCCCC(=O)OCC(COC(=O)CCCCCCC/C=C\CCCCCCCC)OC(=O)CCCCCCC/C=C\CCCCCCCC [1,2,3-tri(cis-9-octadecenoyl)glycerol]
// query Arrange by Normal melting temperature, high to low. Answer by listing the labels in the order asked for.
// result 2, 1, 4, 3
